Can you tell me apparent KD of K4 kissing-loop reporter for the items I'm about to list?
tested on: K4 kissing-loop RNA reporter; assay: apparent KD of K4 kissing-loop reporter; higher = weaker reporter binding; conditions: Eterna round: R107; input ligand: tryptophan 2.4 mM
Give bare numbers, in nM.

Consider the following illustrative entries.
ACUCUUGCGUAUGAUACCAGCUUGUACCGCCACAUAUAUUCUAAGAGUUGAGUGAUGUUUAGCCCUUGGCAGCAUACUUGUGCGU [theeternabot_exclusion_KL_Theo_B_42]    702
AGUCGCAGUGAUGUUGCGAUUCCGUUGAGGGAGGAUAUUGGUAAUACAAGAAGGCCCGGCUACGGGAGAUGUUAGCAAUAGGGCC [Exclusion FMN A GF20]    63.9
UAAGCUCUGACGGCCGCCACUGCACGUGAAUCAGUGGUGGCUAACAUGAGUGAUGUUCAUGUAAGCAGGACCGGGUCAGAGCUAA [KL-XTryp-B14 #analogue]    109
AAACGUUGGUCUGAUACCAGCUUGAUCGGUAAACGAUCUACUGGAGUGAUGUUCCUAAAUAGCCCUUGGCAGCAGACCGACGAAA [MAT - Same State Theophlline B - Mod of Eli - D7]    170

Please supply apparent KD of K4 kissing-loop reporter for each of the following items, keeping them in order.
1. AAAAUAAACCAGUGAUGUUGGUGUCCAGAUACCAGCGAUAAUAAUCGCCCUUGGCAGCUGCGGACGUACAAAAUAAGUACGUCCU [MatMod 11 - Jieux - Same State - Theophylline A]
2. GGGCGUGGCGCGGCCGCCACUGGGCCUGGGCGCUCGCUGAGUGAUGUUCGUCGGCGGUUGGGUCGUAGGACCGGGUGCUGGUUGG [BDazzled - #8 SS Tryptophan B]
3. CGCAGUGAUGUUGCGAGUAGAUACAGGGAAGGAGCGCCGUAGUAGGCAGGUAGGUCGCCCACGCAGUGAUGUUGCGUCAUAGGGU [Exclusion Arginine A GF 5]
4. GCCGUACGCAUGGAUACCAGAUGGCACUAUAAUCUACCAGAGUGAUGUUCUGGCCUGCCCAUCCCUUGGCAGCCAUGCGUACGGC
5. ACCUACGAUCACAAAAGUGAUUGUAGGAUCUAGGAUAUGCUGAAGAGCAGAAGGAGAGUGAUGUUCUCAACUCACGAAAGUGAGA [whbob_Ex_FMNA__2th188]
6. AAGAAGGUCAAAGACCUUCGUGCUCGUGAUACCAGUCGCGAAAGCGGCCCUUGGCAGCACGGCAGUGAUGUUGCCAAGAGCACAA [#13 K4 Theophylline A Same State]
7. GGACCGCCAGUGAUGUUGGAGAUAAACUCCAAGGAUAUGACGAAAGUCAGAAGGUGGUAAUAAGACGUCAAAGACGUCAGGUCCA [FmnA 21 #SwitchBubble #K4Early]
8. UUGGCCGGACGGGAUACCAGUCAAAUCGUGUGCUUGGGAUGUCUAAGAGCCAGUGAUGUUGGCCCUUGGCAGCCCUCCCAGCUUG [Esleaqu]

Output:
408
253
87.6
206
175
211
266
93.5

====

tested on: MS2 coat protein; test: apparent KD of MS2 coat protein; designed switch direction (-1 OFF switch, 1 ON switch): 1; higher = weaker reporter binding; details: input ligand: FMN 200 uM
Property name: apparent KD of MS2 coat protein
Answer format: value, then unit.

CUACGCGCCGCAGGAUAUGCCGACCCGUGUUGAGCAGAAGGGCGAAACAUGAGGAUCACCCAUGUUGAAAGAGCGCAAAAUUAA [Erteerte] (Eterna round: R96, puzzle: Same State NG 1)    0.0235 µM
UUCACCUUAUUUUACAUGAGGAUCACCCAUGUUUUCCCUACGUAGGAUAUCGAUGCUUGAUUGUUCGAGAAGGACGAUGUAAGU [JR_SSND3_Sub055] (Eterna round: R96, puzzle: Same State NG 3)    0.0334 µM

For each entry beneath this line, provide reported apparent KD of MS2 coat protein.
1. AUGCCAAAUCAAGGAUAUGGAUCCUUAUUGGAUCCAGAAGGUGGGACAUGAGGAUCACCCAUGUGGCAGUGGUCUAAUGACCAC [Fiskers NG1ss - 30] (Eterna round: R96, puzzle: Same State NG 1)
2. UGGCUGAGUCGAGGAUAUUAUGGAUCCUCUAAUACAUGAGGAUCACCCAUGUAAUUAAUUAUACAUGAGAAGGUGACUCAGCCA [SSNG2/12-B2] (Eterna round: R96, puzzle: Same State NG 2)
3. UUAAUUUACUGAGGAUAUCGUGUCGACUGAGUUGACAUGAGGAUCACCCAUGUGUGAAGUGGUAUCGAGAAGGCAGUUUUCUUA [JR_SSNG2_Sub026] (Eterna round: R96, puzzle: Same State NG 2)

Output:
1: 0.061 µM; 2: 0.463 µM; 3: 0.019 µM

====

So I've got a bunch of sequences here, and I need their apparent KD of MS2 coat protein values.
test system: MS2 coat protein; assay: apparent KD of MS2 coat protein; designed switch direction (-1 OFF switch, 1 ON switch): 1; higher = weaker reporter binding; conditions: input ligand: FMN 200 uM
Numbers only, in nM.

Study these solved cases before continuing.
AUUAUUUAUGCAGGAUAUGAUUAACAUGAGGAUCACCCAUGUGGUGUUGUGAGUAAGGAGAGUGAUCAGAAGGGCAUCUUUUUU [JMF's solution 44] (Eterna round: R96, puzzle: Same State NG 2)    610
CCAACGUACAAUUUAGAUCUACAUGAGGAUCACCCAUGUACGGAGGAUAUCAGCUCGUGUAGAGCUGAGAAGGCCGAAUUAAUU [SSNG3/2-A4] (Eterna round: R96, puzzle: Same State NG 3)    88
UAGGAGAGUAGAACAUGAGGAUCACCCAUGUAACCUCAUGUAUAGGAUAUGUUAAGAGUAGUAGAACAGAAGGAUAAGUAGGAU [Default title] (Eterna round: R96, puzzle: Same State NG 3)    694
CCGGUUUAUGGAGGAUAUGGAGCCUUAUUGGCUCCAGAAGGUCAAUAACAUGAGGAUCACCCAUGUCCGGCGGUCAAUAGACCG [Eli NG1ss - 69] (Eterna round: R96, puzzle: Same State NG 1)    120
GGAAUAUUUACAGGAUAUGAUUUGUUAAGUCGAUCAGAAGGGUGGAUGUCUUACACGGUUUGUUACAUGAGGAUCACCCAUGUC [SameState NG1 #14] (Eterna round: R96, puzzle: Same State NG 1)    73.3

Dear colleague, could you send me apparent KD of MS2 coat protein for each of the items below? Thanks.
1. GCUCGUAUGAUGACCGACAUGAGGAUCACCCAUGUGUGUUGGUAGGAUAUCUAUAUUAAGGAUAUAGAGAAGGGCCGAACGAGC [SameState NG3 #16] (Eterna round: R96, puzzle: Same State NG 3)
2. GGACGGUUAUCAGGAUAUGCGCUGAGCAUCACGGCUACAUGAGGAUCACCCAUGUCUAGCUUCUCGCAGAAGGGAUAGCCUCCU [Eternabot solution 36] (Eterna round: R96, puzzle: Same State NG 2)
3. CAAUAAAACACAGGAUAUACAGCCAGCCAGGCUGUAGAAGGGUGAGACAUGAGGAUCACCCAUGUACAAGUCGUAGGACUUGGG [Edlaticeen] (Eterna round: R96, puzzle: Same State NG 1)
4. CCGGGUAAUGGAGGAUAUGGAGCCUUAUUGGCUCCAGAAGGUCAAUAACAUGAGGAUCACCCAUGUCCGGCGGUCAAUAGACCG [Eli NG1ss - 68] (Eterna round: R96, puzzle: Same State NG 1)

Output:
1. 22.4
2. 11.2
3. 1030
4. 87.5

====

test system: MS2 coat protein; assay: apparent KD of MS2 coat protein; higher = weaker reporter binding; conditions: Eterna round: R107; input ligand: tryptophan 2.4 mM
Property name: apparent KD of MS2 coat protein (nM)
Numbers only, in nM.

Worked examples follow.
UUCAAAGGGAACGGUGCUGGUGACAGAGAUACCAGAGUAGUAAUACUCCCUUGGCAGCUCAGAACAUGAGGAUCACCCAUGUAAU [Exclusion Theophylline A GF22]    17.6
GGUAUUGGAACAGAUACCAGUAUCUGUUGAUCCUACAUGAGGAUCACCCAUGUUAGAAAGUACCCUUGGCAGCUGUAAUAAUGCC [Theo B Ex t1]    49.4

# ---- query sequence ----
Input: Kindly indicate its recorded apparent KD of MS2 coat protein. Item: AGUAGUUGACAAAAGUCAGCUACAAUUGAAGGAGCGGGUGGGUGCCCAGGUAGGUCGCAAUAACAUGAGGAUCACCCAUGUAUAA [ArgAS 2 #BothOrNeither #OpenEnded]
Output: 17.9

====

test system: K4 kissing-loop RNA reporter; assay: apparent KD of K4 kissing-loop reporter; higher = weaker reporter binding; settings: Eterna round: R107; input ligand: none;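 also: bound reporter read as fluorescence of individual clusters on recovered sequencing chips by microscopy, with normalized cluster intensities fitted with a binding model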
Please respond with reported apparent KD of K4 kissing-loop reporter for every item in the list.
One number for each entry, in nM.

Study these solved cases before continuing.
GAUGCAUAUUCCUGGAGGAAGAUGGUUAAGAAGGAUAUCAAAGCCGUGAGAAGGUCUAAACCUAAUAGUCGAGUGAUGUUCGACC [theeternabot_sameState_KL_FMN_A_35]    356
GGAGGGAUCUCGGCCGCCACUCAUAAGAAAUGAACCUCAGAAAUAUAGUGAUGUUAUAUAAAGAAGAGGACCGGGAGAAAGGAGG [ExTryptoB.B]    161
ACGCUGUGAAUAACACAGCGAAUAAAUUCGCGAGGACCGGUACGGCCGCCACUCGCUAACUGCGAGUGAUGUUCGAUAAUAAAAU [Mat - Mod of OpenEnded 3 - D13]    172
AUGCGGUGGAGGCUACCGCUAUUCUGAGAAGGAGCGCAGAUGACUGCAGGUAGGUCGCUUAGAGCUUGCAGUGAUGUUGCAAGUU [Islatimaed]    191
UUGUUUGGUUGAGAGGUUGGGCGAAAUGAUACCAGUAUAUAAGAAUACCCUUGGCAGCAUAAGAAAGAUAUAGUGAUGUUGUAUA [SSTheophA.L]    431

Input: Please indicate apparent KD of K4 kissing-loop reporter recorded for GAACGGAGUGAUGUUCCGUUGACGAUCCUACGAGGACCGGUACGGCCGCCACUCGUAUUGCAGUGAUGUUGCAACCAGCCGUACU [Exclusion Tryptophan A GF 10]
Output: 102
